src = ChEMBL document CHEMBL4725292

# assayed_system: Transcription initiation factor TFIID subunit 1 (Homo sapiens, UniProt P21675)
# Sequence (P21675 whole entry): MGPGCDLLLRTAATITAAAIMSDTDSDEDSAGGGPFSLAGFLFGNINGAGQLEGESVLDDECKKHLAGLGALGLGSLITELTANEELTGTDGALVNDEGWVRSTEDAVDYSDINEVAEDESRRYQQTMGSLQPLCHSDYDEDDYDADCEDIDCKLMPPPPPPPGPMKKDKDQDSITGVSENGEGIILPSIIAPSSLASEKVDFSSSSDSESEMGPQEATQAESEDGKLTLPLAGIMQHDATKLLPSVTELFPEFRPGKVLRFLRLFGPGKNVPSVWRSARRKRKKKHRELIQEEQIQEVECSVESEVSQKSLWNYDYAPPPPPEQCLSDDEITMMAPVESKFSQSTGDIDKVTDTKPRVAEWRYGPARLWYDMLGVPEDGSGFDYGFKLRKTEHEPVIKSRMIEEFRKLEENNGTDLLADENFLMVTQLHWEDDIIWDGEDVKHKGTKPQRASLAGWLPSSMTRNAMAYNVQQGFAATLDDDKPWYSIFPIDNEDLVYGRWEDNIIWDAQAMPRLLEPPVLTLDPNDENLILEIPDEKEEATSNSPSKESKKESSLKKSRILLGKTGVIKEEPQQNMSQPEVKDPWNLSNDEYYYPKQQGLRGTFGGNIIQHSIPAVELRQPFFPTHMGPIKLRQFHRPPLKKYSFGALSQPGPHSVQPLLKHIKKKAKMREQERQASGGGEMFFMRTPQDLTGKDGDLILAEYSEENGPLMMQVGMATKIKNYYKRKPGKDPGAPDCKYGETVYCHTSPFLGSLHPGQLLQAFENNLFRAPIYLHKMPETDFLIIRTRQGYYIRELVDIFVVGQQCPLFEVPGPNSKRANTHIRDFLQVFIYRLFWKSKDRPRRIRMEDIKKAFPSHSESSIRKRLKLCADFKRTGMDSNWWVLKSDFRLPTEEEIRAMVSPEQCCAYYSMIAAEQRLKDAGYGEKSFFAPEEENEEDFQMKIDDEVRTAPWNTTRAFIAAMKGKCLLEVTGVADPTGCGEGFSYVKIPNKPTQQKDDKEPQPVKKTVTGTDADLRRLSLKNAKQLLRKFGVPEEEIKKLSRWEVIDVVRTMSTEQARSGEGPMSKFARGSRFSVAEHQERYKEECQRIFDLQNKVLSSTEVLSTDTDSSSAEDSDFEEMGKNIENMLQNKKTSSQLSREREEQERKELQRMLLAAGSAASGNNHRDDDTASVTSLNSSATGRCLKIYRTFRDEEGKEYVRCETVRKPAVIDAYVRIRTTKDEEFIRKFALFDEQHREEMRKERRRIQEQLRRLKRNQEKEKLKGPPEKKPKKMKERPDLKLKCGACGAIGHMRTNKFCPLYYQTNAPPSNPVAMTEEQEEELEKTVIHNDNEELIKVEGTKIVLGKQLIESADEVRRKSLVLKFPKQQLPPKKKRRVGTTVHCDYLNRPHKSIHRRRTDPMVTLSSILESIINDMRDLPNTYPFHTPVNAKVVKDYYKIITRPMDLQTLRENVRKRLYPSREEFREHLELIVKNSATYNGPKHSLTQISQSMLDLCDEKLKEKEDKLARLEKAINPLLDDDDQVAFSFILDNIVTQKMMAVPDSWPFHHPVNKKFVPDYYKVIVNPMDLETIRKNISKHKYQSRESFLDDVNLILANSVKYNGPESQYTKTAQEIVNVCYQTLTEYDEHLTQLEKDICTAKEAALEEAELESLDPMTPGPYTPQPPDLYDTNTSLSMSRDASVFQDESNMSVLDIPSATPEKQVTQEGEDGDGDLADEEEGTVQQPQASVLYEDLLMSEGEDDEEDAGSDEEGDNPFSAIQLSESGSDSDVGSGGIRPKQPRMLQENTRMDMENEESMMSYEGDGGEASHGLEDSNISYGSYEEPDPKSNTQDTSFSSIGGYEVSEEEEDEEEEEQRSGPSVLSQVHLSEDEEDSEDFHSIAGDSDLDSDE
# assay_explanation: Displacement of AlexaFluor 488-labelled BD-AF488 from TAF1 BD2 (unknown origin) incubated for 15 mins by TR-FRET assay
readout_name: IC50 (µM)

structure_string: Cc1cc2c(-c3ccco3)cnc(N[C@@H]3CCN(C)C[C@H]3C(=O)NC3CCCCC3)c2[nH]c1=O
value_unit: µM
measurement: 10

* * *

# assay_explanation: Lipophilicity, logD of the compound at pH 7.4 by chromatographic method
# Format: physicochemical
# experimental_context: buffer
// map chromatographic logD to label using lowest (below 2), middle (2 to below 4), highest (4 or more)

compound: Cc1cncc(-c2cnc(N[C@@H]3CCNC[C@H]3C(=O)NC3CCCCC3)c3[nH]c(=O)c(C)cc23)c1 (relative stereo)
assigned_class: middle

compound: Cc1coc(-c2cnc(N[C@@H]3CCN(C)C[C@H]3C(=O)NC3CCCCC3)c3[nH]c(=O)c(C)cc23)c1
assigned_class: highest

compound: C/C=C/c1cnc(N[C@@H]2CCNC[C@H]2C(=O)NC2CCCCC2)c2[nH]c(=O)c(C)cc12 (racemic)
assigned_class: middle

compound: Cc1ccoc1-c1cnc(N[C@@H]2CCN(C)C[C@H]2C(=O)NC2CCCCC2)c2[nH]c(=O)c(C)cc12
assigned_class: highest

compound: Cc1cc2ccnc(N[C@@H]3CCNC[C@H]3C(=O)NCC3CCCC3)c2[nH]c1=O (mixture of isomers)
assigned_class: middle

compound: Cc1ccsc1-c1cnc(N[C@@H]2CCN(C)C[C@H]2C(=O)NC2CCCCC2)c2[nH]c(=O)c(C)cc12 (relative stereo)
assigned_class: highest

compound: Cc1ccc(-c2cnc(N[C@@H]3CCN(C)C[C@H]3C(=O)NC3CCCCC3)c3[nH]c(=O)c(C)cc23)s1
assigned_class: highest

compound: CO[C@@H](C)CNC(=O)[C@@H]1CNCC[C@H]1Nc1nccc2cc(C)c(=O)[nH]c12 (mixture of isomers)
assigned_class: lowest

compound: Cc1ccc(-c2cnc(N[C@@H]3CCN(C)C[C@H]3C(=O)NC3CCCCC3)c3[nH]c(=O)c(C)cc23)o1
assigned_class: highest

compound: Cc1cc2ccnc(N[C@@H]3CCNC[C@H]3C(=O)NC3CCOCC3)c2[nH]c1=O (mixture of isomers)
assigned_class: lowest

compound: Cc1cc2c(C3=CCCCC3)cnc(N[C@@H]3CCNC[C@H]3C(=O)NC3CCCCC3)c2[nH]c1=O (mixture of isomers)
assigned_class: highest

compound: Cc1cc2ccnc(N[C@@H]3CCNC[C@H]3C(=O)N[C@H](C)C(C)C)c2[nH]c1=O (relative stereo)
assigned_class: lowest

compound: Cc1cc2c(-c3ccco3)cnc(N[C@H]3CCNC[C@@H]3C(=O)NC3CCCCC3)c2[nH]c1=O
assigned_class: middle

compound: Cc1cc2c(-c3ccoc3)cnc(N[C@@H]3CCNC[C@H]3C(=O)NC3CCCCC3)c2[nH]c1=O (mixture of isomers)
assigned_class: middle

compound: Cc1cc2c(-c3ccco3)ccc(N[C@@H]3CCNC[C@H]3C(=O)NC3CCCCC3)c2[nH]c1=O (racemic)
assigned_class: middle

compound: Cc1cc2ccnc(N[C@@H]3CCNC[C@H]3C(=O)NCC3CC3)c2[nH]c1=O (mixture of isomers)
assigned_class: lowest

compound: Cc1cc2c(-c3cnn(C)c3)cnc(N[C@@H]3CCNC[C@H]3C(=O)NC3CCCCC3)c2[nH]c1=O (mixture of isomers)
assigned_class: lowest

compound: Cc1cc2c(-c3cnn(C)c3)cnc(N[C@@H]3CCN(C)C[C@H]3C(=O)NC3CCCCC3)c2[nH]c1=O
assigned_class: middle

compound: Cc1cc2ccnc(N[C@@H]3CCNC[C@@H]3C(=O)NC3CCCCC3)c2[nH]c1=O (relative stereo)
assigned_class: lowest

* * *

# assayed_system: Bromodomain-containing protein 3 (Homo sapiens, UniProt Q15059)
# Sequence (Q15059 whole entry): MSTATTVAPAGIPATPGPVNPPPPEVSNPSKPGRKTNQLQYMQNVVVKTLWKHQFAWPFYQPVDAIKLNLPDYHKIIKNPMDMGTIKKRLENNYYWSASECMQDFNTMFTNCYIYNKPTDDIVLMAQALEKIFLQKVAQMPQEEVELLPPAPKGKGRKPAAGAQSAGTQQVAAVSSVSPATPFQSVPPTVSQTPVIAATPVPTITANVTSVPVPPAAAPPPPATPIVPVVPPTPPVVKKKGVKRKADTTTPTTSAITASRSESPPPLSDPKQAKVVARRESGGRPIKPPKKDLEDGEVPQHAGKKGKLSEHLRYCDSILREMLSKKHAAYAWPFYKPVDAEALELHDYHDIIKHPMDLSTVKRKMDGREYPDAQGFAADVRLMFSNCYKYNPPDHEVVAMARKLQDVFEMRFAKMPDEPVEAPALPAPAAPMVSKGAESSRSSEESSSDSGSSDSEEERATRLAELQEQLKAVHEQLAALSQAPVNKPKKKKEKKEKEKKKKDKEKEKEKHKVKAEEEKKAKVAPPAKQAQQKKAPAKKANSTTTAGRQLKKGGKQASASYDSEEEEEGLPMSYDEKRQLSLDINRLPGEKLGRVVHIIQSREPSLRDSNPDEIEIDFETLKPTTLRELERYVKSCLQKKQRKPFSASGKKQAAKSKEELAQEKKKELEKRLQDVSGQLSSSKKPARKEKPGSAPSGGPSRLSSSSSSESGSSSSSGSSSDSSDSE
# assay_explanation: Binding affinity to full length BRD3 BD1 in human HuT78 cell lysates incubated for 45 mins by liquid chromatography-mass spectrometry based chemoproteomic binding assay
# Type: subcellular

structure_string: Cc1cc2c(-c3ccco3)cnc(N[C@@H]3CCN(C)C[C@H]3C(=O)NC3CCCCC3)c2[nH]c1=O
Kd (nM): 3.98

* * *

# assayed_system: Transcription initiation factor TFIID subunit 1-like (Homo sapiens, UniProt Q8IZX4)
# assay_explanation: Binding affinity to human partial length TAF1L bromodomain 2 (Q1523 to D1654 residues) expressed in bacterial expression system by BROMOscan assay
pKd: −log10 of the molar value.
readout_name: pKd

structure_string: Cc1cc2c(-c3ccco3)cnc(N[C@@H]3CCN(C)C[C@H]3C(=O)NC3CCCCC3)c2[nH]c1=O
readout_name: pKd
measurement: 6.40

* * *

# assayed_system: Bromodomain testis-specific protein (Homo sapiens, UniProt Q58F21)
# assay_explanation: Binding affinity to full length BRDT BD1 in human HuT78 cell lysates incubated for 45 mins by liquid chromatography-mass spectrometry based chemoproteomic binding assay
# Type: subcellular

structure_string: Cc1cc2c(-c3ccco3)cnc(N[C@@H]3CCN(C)C[C@H]3C(=O)NC3CCCCC3)c2[nH]c1=O
value_unit: nM
Kd: 10

* * *

# assayed_system: ATPase family AAA domain-containing protein 2B (Homo sapiens, UniProt Q9ULI0)
# Sequence (Q9ULI0 whole entry, the tested form may be a part): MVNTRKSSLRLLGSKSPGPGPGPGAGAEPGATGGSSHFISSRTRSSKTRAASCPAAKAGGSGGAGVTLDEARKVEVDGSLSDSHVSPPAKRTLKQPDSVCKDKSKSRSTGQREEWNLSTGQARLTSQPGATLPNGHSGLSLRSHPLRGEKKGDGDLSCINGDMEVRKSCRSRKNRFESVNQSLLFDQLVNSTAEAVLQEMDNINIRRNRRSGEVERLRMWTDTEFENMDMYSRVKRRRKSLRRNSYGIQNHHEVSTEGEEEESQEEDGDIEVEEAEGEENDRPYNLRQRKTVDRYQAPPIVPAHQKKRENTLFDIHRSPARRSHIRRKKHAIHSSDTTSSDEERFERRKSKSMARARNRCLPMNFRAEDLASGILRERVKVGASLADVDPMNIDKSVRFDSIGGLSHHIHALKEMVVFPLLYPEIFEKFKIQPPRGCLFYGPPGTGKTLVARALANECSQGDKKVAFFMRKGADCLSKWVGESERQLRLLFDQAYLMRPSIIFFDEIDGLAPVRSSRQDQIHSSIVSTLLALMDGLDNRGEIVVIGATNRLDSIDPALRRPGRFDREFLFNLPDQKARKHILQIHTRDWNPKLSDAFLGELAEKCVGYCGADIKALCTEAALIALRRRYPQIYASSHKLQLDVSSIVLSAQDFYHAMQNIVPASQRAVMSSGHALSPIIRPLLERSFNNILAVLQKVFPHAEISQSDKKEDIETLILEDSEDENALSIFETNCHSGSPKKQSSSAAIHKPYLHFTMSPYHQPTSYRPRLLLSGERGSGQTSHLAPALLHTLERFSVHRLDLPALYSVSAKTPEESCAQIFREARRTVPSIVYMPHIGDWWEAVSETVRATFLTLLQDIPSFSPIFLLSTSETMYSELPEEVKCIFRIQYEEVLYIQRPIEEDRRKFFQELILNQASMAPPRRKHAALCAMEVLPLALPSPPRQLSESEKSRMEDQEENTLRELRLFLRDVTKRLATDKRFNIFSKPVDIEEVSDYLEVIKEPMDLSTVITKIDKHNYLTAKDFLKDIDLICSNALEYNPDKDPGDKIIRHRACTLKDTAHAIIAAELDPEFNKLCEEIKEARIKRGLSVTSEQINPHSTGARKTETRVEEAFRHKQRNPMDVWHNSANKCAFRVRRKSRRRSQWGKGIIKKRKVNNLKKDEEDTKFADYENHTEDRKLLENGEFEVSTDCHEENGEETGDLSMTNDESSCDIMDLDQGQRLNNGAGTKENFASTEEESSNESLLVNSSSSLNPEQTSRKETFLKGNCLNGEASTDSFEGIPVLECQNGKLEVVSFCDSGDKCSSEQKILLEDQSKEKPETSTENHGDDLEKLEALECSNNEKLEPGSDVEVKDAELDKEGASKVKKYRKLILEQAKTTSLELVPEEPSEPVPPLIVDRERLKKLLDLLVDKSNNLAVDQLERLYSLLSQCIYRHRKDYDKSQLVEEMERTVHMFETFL
# assay_explanation: Binding affinity to human partial length ATAD2B (Q955 to R1082 residues) expressed in bacterial expression system by BROMOscan assay
readout_name: Kd (µM)

structure_string: Cc1cc2c(-c3ccco3)cnc(N[C@@H]3CCN(C)C[C@H]3C(=O)NC3CCCCC3)c2[nH]c1=O
measurement: 15.8

* * *

# assayed_system: Bromodomain-containing protein 4 (Homo sapiens, UniProt O60885, Y390A)
# assay_explanation: Displacement of Alexa Fluor 647 labelled ligand from His6-thr-tagged BRD4 BD1 (1 to 477 residues)/BD2 Y390A mutant (unknown origin) after 30 mins by TR-FRET assay
Here, each record is paired with measured IC50 data.

compound: Cc1cc2c(-c3ccco3)ccc(N[C@@H]3CCNC[C@H]3C(=O)NC3CCCCC3)c2[nH]c1=O (racemic)
assayed_system: Bromodomain-containing protein 4 (Homo sapiens, UniProt O60885, Y390A)
IC50, nM: 316
//
compound: Cc1cc2ccnc(N[C@@H]3CCNC[C@H]3C(=O)N[C@@H]3CCCOC3)c2[nH]c1=O (mixture of isomers)
assayed_system: Bromodomain-containing protein 4 (Homo sapiens, UniProt O60885, Y390A)
IC50, nM: 3980
//
compound: Cc1coc(-c2cnc(N[C@@H]3CCN(C)C[C@H]3C(=O)NC3CCCCC3)c3[nH]c(=O)c(C)cc23)c1
assayed_system: Bromodomain-containing protein 4 (Homo sapiens, UniProt O60885, Y390A)
IC50, nM: 39.8
